This listing pairs molecules with measured IC50.
system: Aβ40 in conditioned medium of cells stably expressing Amyloid Precursor Protein (APP); experiment: In vitro BACE cell-based assay (HEK cell assay), Aβ40 sandwich ELISA; conditions: IC50 range symbols, Table 1; Aβ40, 24 h incubation; read-out: HEK cell assay

# MOLECULE, IC50
rows = [
    ("Cc1ccccc1-c1ccc2nc(N)c(CCC(=O)N[C@H](C)c3cccnc3)cc2c1 [Example 131]", "1 to 5 µM"),
    ("Cc1ccccc1-c1ccc2nc(N)c(CC(C)C(=O)N[C@H](C)c3ccccc3OC(F)F)cc2c1 (stereo partly shown)", "1 to 5 µM"),
    ("COc1ccccc1[C@@H](C)NC(=O)C(C)Cc1cc2cc(-c3ccccc3C)ccc2nc1N (stereo partly shown)", "1 to 5 µM"),
    ("Cc1ccccc1-c1ccc2nc(N)c(CCC(=O)N[C@H](C)c3cccnc3)cc2c1 [Example 78]", "> 5 µM"),
]

---

This listing pairs compounds with measured pIC50.
molecular target: BACE 1 (Beta Secretase enzyme) (Homo sapiens); assay: In vitro enzymatic BACE FRET assay; assay type: biochemical; conditions: IC50 range symbols, Table 1; read-out: BACE 1 FRET assay
Sequence (P56817 46-501, species assumed): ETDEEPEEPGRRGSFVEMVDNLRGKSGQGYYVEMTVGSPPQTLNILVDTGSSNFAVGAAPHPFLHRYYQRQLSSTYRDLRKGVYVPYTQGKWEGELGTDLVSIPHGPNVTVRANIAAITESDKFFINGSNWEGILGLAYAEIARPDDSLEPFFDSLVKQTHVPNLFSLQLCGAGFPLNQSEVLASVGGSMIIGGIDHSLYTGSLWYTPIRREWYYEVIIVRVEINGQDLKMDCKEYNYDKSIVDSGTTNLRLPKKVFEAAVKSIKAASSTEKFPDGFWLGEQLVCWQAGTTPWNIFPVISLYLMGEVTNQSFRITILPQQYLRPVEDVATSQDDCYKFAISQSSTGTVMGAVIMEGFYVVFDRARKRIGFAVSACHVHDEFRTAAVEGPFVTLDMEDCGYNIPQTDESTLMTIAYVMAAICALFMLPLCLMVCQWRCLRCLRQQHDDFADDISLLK
pIC50: −log10 of the molar value.

# COMPOUND, pIC50
measured = [
    ("Cc1ccccc1-c1ccc2nc(N)c(CCC(=O)NCc3nccs3)cc2c1", "> 6.30"),
    ("COc1ccccc1-c1ccc2nc(N)c(CCC(=O)NCC3CCCCC3)cc2c1", "> 6.30"),
    ("Cc1ccccc1-c1cc2cc(CC(C)C(=O)NCCC(F)(F)F)c(N)nc2cn1 (stereo not drawn)", "> 6.30"),
    ("COc1ccccc1[C@@H](C)NC(=O)[C@H](C)Cc1cc2cc(-c3ccccc3C)ccc2nc1N", "5.30 to 6.00"),
    ("CC(Cc1cc2cc(-c3ncccc3CCN3CCN(C)CC3)ccc2nc1N)C(=O)NCCC(C)(C)C (stereo not drawn)", "6.00 to 6.30"),
    ("Cc1ccccc1-c1ccc2nc(N)c(CC(C)C(=O)NCC3CCCOC3)cc2c1 (stereo not drawn)", "> 6.30"),
]

---

target: BACE 1 (Beta Secretase enzyme) (Homo sapiens); test: In vitro enzymatic BACE FRET assay; assay type: biochemical; conditions: IC50 range symbols, Table 1; read-out: BACE 1 FRET assay
pIC50: −log10 of the molar value.

# COMPOUND, pIC50
data = [
    ("Cc1cccnc1-c1ccc2nc(N)c(CC(C)C(=O)NCC3CCOCC3)cc2c1 (stereo not drawn)", "> 6.30"),
    ("CC(Cc1cc2cc(-c3ccc(Cl)cc3)ccc2nc1N)C(=O)NC1CCOC(C)(C)C1 (stereo not drawn)", "> 6.30"),
    ("Cc1ccccc1-c1ccc2nc(N)c(CCC(=O)NCC3(C)COC3)cc2c1", "5.30 to 6.00"),
    ("CCCCOc1ccccc1-c1ccc2nc(N)c(CC(C)C(=O)NCC3CCCCC3)cc2c1 (stereo not drawn)", "> 6.30"),
    ("Cc1ccccc1-c1ccc2nc(N)c(CC(C)C(=O)NC3CCOC4(CCC4)C3)cc2c1 (stereo not drawn)", "> 6.30"),
    ("CC(Cc1cc2cc(-c3ccccc3C(=O)C3CCCCC3)ccc2nc1N)C(=O)NC1CCOC(C)(C)C1 (stereo not drawn)", "> 6.30"),
]
